The measurements presented in this section are drawn from PubChem BioAssay (NCATS).

# TEST: Viability qHTS for spleen associated tyrosine kinase inhibitor (SYKi) drug resistant MV4-11 cells (AID 1963824); note: nearly all actives have a fitted effect of over 35% in size
# RUN_PARAMETERS: SYKi-resistant MV4-11 viability, CellTiter-Glo, 72 h; series mostly up to 45 µM
Records with an inconclusive call do not appear. Calls of active or inactive are those of the source. Calls come from the whole dose curve; as a rule, active = well fitted cell-killing curve with a large enough effect; inconclusive = small, poorly fitted or top-dose-only effect, or effect the other way; inactive = no such curve, though single readings can be large or run the other way.
Answer with one of the outcomes given here: YES = active, NO = inactive

COMPOUND: CC(=O)OCC(=O)[C@@]12N=C(C)O[C@@H]1C[C@H]1[C@@H]3CCC4=CC(=O)C=C[C@]4(C)[C@H]3[C@@H](O)C[C@@]12C
CLASS_LABEL: NO
//
COMPOUND: CC(=O)OCC(=O)[C@@]12OC(C)(C)O[C@@H]1C[C@H]1[C@@H]3C[C@H](F)C4=CC(=O)C=C[C@]4(C)[C@@]3(F)[C@@H](O)C[C@@]12C
CLASS_LABEL: NO
//
COMPOUND: O=C(/C=C/c1c(C(=O)O)[nH]c2cc(Cl)cc(Cl)c12)Nc1ccccc1
CLASS_LABEL: NO

Req: What outcome does the record of this test show for COc1cc2c(cc1O)C1(OC)Cc3ccc4c(c3C1N(C)CC2)OCO4 (centres undefined) ?
Resp: YES

Req: What outcome does the record of this test show for CC(O)CCC1C(CO[C@@H]2O[C@H](CO)[C@@H](O)[C@H](O)[C@H]2O)CC(O)CC1(C)C (some centres undefined) ?
Resp: NO

Req: What outcome does the record of this test show for CC1C(=O)OCC2=CCN3CCC(OC(=O)C(C)(O)C1(C)O)C23 (centres undefined) ?
Resp: NO

Req: What outcome does the record of this test show for `COc1cc(C(C)=O)ccc1O[C@@H]1O[C@H](CO)[C@@H](O)[C@H](O)[C@H]1O` ?
Resp: NO

Req: What outcome does the record of this test show for `Cc1cccc(C)c1NC(=O)CN1CCCC1` ?
Resp: YES

Req: What outcome does the record of this test show for `C=C1C(=O)O[C@@H]2/C=C(\CO)CC/C=C(/C=O)C[C@@H](O)[C@@H]12` ?
Resp: YES
